- System: P12-Ichikawa
- protocol details: cell viability relative to DMSO control; higher = less cytotoxic
- test settings: RPMI 5 mM glucose + 10% dialyzed FBS; 48 h; 0.0632 µM
test readout: cell viability (%)
Numbers only; they are read as %.

The cases that follow already have their cell viability on record.
CC#C[C@]1(O)CC[C@H]2[C@@H]/3CCC/4=C/C(=O)CCC4=C3[C@H](C[C@]12C)C5=CC=C(C=C5)N(C)C | 102
CC(=O)N1CCN(c2ccc(OCc3nn(C)c(C)c3-c3cccc4c(CCCOc5cc(C)c(Cl)c(C)c5)c(C(=O)O)n(Cc5cccnc5)c34)cc2)CC1 | 125

Respond only with cell viability recorded for O=C1c2c(O)cccc2[C@H]([C@@H]2O[C@H](CO)[C@@H](O)[C@H](O)[C@H]2O)c2cc(CO)cc(O)c21
106

---

- System: SEM cells
- protocol details: cell viability relative to DMSO control; higher = less cytotoxic
- test settings: RPMI 5 mM glucose + 10% dialyzed FBS; 48 h; 1.71 µM
Reported cell viability by item:
Numbers only; they are read as %.

O=C(Cc1cccc(OC(F)(F)F)c1)Nc1ccc(CCCCc2nnc(NC(=O)Cc3ccccn3)s2)nn1 | 60.2
Nc1ccccc1NC(=O)c1ccc(CNc2nccc(-c3cccnc3)n2)cc1 | 17.5

Respond only with cell viability recorded for O=C1\C=C(/OC2=C1C=CC=C2C3=CC=CC=C3)N4CCOCC4
61.9

Respond only with cell viability recorded for CC(C)(C)/[N+]([O-])=C/c1ccc([S+](=O)([O-])[O][Na])cc1[S+](=O)([O-])[O][Na]
104

Respond only with cell viability recorded for COc1cc(N2CCC(C(N)=O)CC2)ccc1Nc1nc(N)c(Cl)c(Nc2ccccc2[S+](=O)([O-])C(C)C)n1
86

Respond only with cell viability recorded for O=C(O)[C@H](Cc1c[nH]c2ccccc12)N1C(=O)c2ccccc2C1=O
84.7

Respond only with cell viability recorded for COc1ccc(Cc2nccc3cc(OC)c(OC)cc23)cc1OC
118

Respond only with cell viability recorded for Cc1cc(Nc2ncc(Cl)c(Nc3ccccc3[S+](=O)([O-])C(C)C)n2)c(OC(C)C)cc1C1CCNCC1
100

---

- Tested on: P12-Ichikawa
- protocol details: cell viability relative to DMSO control; higher = less cytotoxic
- test settings: RPMI 5 mM glucose + 10% dialyzed FBS; 48 h; 0.000781 µM
Mark each entry 1.0 if its cell viability sits below 90%, and 0.0 for all others.

Past entries and their recorded results:
C#Cc1cccc(Nc2ncnc3cc(OCCOC)c(OCCO)cc23)c1 | 0.0
CCOC(=O)Nc1ccc(NCc2ccc(F)cc2)cc1N | 0.0
Clc1cccc(-c2nnnn2Cc2cccnc2)c1Cl | 1.0
NC(=O)c1ccc(-c2nc(-c3ccc4c(c3)OCCO4)c(-c3ccccn3)[nH]2)cc1 | 0.0
COC1=CC=C2Nc3cc(Cl)ccc3C(N=C3C=C(CN4CCCC4)C(=O)C(CN4CCCC4)=C3)=C2N1 | 0.0
CC#C[C@]1(O)CC[C@H]2[C@@H]/3CCC/4=C/C(=O)CCC4=C3[C@H](C[C@]12C)C5=CC=C(C=C5)N(C)C | 1.0

Shift focus to the following entry.
Threshold test, cell viability < 90%: Cc1ccc(-n2nc(C(C)(C)C)cc2NC(=O)Nc2ccc(OCCN3CCOCC3)c3ccccc23)cc1
0.0

---

- System: P12-Ichikawa
- protocol details: cell viability relative to DMSO control; higher = less cytotoxic
- test settings: RPMI 5 mM glucose + 10% FBS; 48 h; 46.1 µM
test readout: cell viability (%)
Numbers only; they are read as %.

The cases that follow already have their cell viability on record.
O=C1NC(=O)[C@@H](c2cn3c4c(cccc24)CCC3)[C@@H]1c1c[nH]c2ccccc12 | 14.3
CCNC(=O)C[C@@H]1\N=C(C2=CC=C(Cl)C=C2)/C3=C(C=CC(=C3)OC)[N]4C(=NN=C14)C | 37.8
COC(=O)N1CCN(Cc2cccc(NC(=O)Nc3ccc(C)nc3)c2F)CC1 | 74.4
O=C(Nc1ccc(OC(F)(F)F)cc1)c1sccc1NCc1ccnc2ccccc12 | 9.62
CCCCN(CCCC)CCC(O)c1cc2c(Cl)cc(Cl)cc2c2cc(C(F)(F)F)ccc12 (stereo not drawn) | 88.3
CN1CCCN(C(=O)c2cccc(-c3ccc(/C=C4/C(=O)Nc5ccc(Cl)cc54)o3)c2)CC1 | 3.03
O=[N+]([O-])c1cn2c(n1)OC[C@@H](OCc1ccc(OC(F)(F)F)cc1)C2 | 121

Respond only with cell viability recorded for C[C@H]1CN(C[C@@H](C)O1)CC(=O)NC2=CC=C3SC4=C(CC3=C2)C=CC=C4\C5=C\C(=O)\C=C(/O5)N6CCOCC6
49.8

---

- Test system: NOMO1
- protocol details: cell viability relative to DMSO control; higher = less cytotoxic
- test settings: HPLM + 10% dialyzed FBS; 48 h; 46.1 µM
Binning scheme for cell viability: bottom: < 50%; middle: ≥ 50% and < 90%; top: ≥ 90%

Past entries and their recorded results:
Cc1cc(O)c2c3c4c(cc(O)c13)C(C)(C)C(=O)c1c(O)cc(O)c(c1-4)C2=O | bottom
CN(C)CCOC(c1ccccc1)c1ccccc1 | middle

Determine which band this molecule sits in: O=C1\C=C(/OC2=C1C=CC=C2C3=CC=CC=C3)N4CCOCC4
middle

Determine which band this molecule sits in: CNC(=O)[C@H](Cc1ccccc1)NC(=O)[C@H](CC(C)C)[C@H](CSc1cccs1)C(=O)NO
middle

Determine which band this molecule sits in: C[N]1C=NC=C1[C@@](N)(C2=CC=C(Cl)C=C2)C3=CC=C4N(C)C(=O)\C=C(\C5=CC=CC(=C5)Cl)C4=C3
bottom

Determine which band this molecule sits in: Clc1ccc(C2(c3ccc(-c4cn[nH]c4)cc3)CCNCC2)cc1
middle

Determine which band this molecule sits in: CN(C)Cc1ccc(-c2nc3cccc4c3n2CCNC4=O)cc1
top

Determine which band this molecule sits in: ClC1=CC=C(CCCOC/2=N/NC(=O)C(=C2NCC3=CN=CC=C3)/Br)C=C1
bottom

Determine which band this molecule sits in: C1Cc2[nH]nc(-c3nn[nH]n3)c2C1
top

Determine which band this molecule sits in: CO[C@H]1C[C@@H]2CC[C@@H](C)[C@@](O)(O2)C(=O)C(=O)N2CCCC[C@H]2C(=O)O[C@H]([C@H](C)C[C@@H]2CC[C@@H](OP(C)(C)=O)[C@H](OC)C2)CC(=O)[C@H](C)/C=C(\C)[C@@H](O)[C@@H](OC)C(=O)[C@H](C)C[C@H](C)/C=C/C=C/C=C/1C
top

Determine which band this molecule sits in: O=C1NC(=O)[C@@H](c2cn3c4c(cccc24)CCC3)[C@@H]1c1c[nH]c2ccccc12
bottom

Determine which band this molecule sits in: O=C1c2c(O)cccc2[C@H]([C@@H]2O[C@H](CO)[C@@H](O)[C@H](O)[C@H]2O)c2cc(CO)cc(O)c21
top

---

- Test system: SEM cells
- protocol details: cell viability relative to DMSO control; higher = less cytotoxic
- test settings: RPMI 5 mM glucose + 10% dialyzed FBS; 48 h; 15.4 µM
Reported cell viability by item:
Numbers only; they are read as %.

The cases that follow already have their cell viability on record.
CC/1=C/N([C@@H]2C[C@@H](O)[C@H](CO)O2)C(=O)NC1=O | 56.9
Cc1c[nH]c(/C=C2\C(=O)Nc3ccccc32)c1CCC(=O)O | 25.7
N[C@@H](C(=O)N[C@H]1[C@H]2SC\C(=C(/N2C1=O)C(O)=O)Cl)C3=CC=CC=C3 | 131
CC(C)C[C@H](CN)CC(=O)O | 38.8
COc1cc2nccc(Oc3ccc(NC(=O)Nc4cc(C)on4)c(Cl)c3)c2cc1OC | 43

Respond only with cell viability recorded for COc1nc(-c2ccc3c(c2)OCO3)n(-c2ccc(NC(=O)CSc3ccccc3)cc2)n1
99.7

Respond only with cell viability recorded for CN[C@H](CC(C)C)C(=O)N[C@H]1C(=O)N[C@@H](CC(N)=O)C(=O)N[C@H]2C(=O)N[C@H]3C(=O)N[C@H](C(=O)N[C@H](C(=O)O)c4cc(O)cc(O)c4-c4cc3ccc4O)[C@H](O)c3ccc(c(Cl)c3)Oc3cc2cc(c3O[C@@H]2O[C@H](CO)[C@@H](O)[C@H](O)[C@H]2O[C@H]2C[C@](C)(N)[C@H](O)[C@H](C)O2)Oc2ccc(cc2Cl)[C@H]1O
118

---

- System: NOMO1
- protocol details: cell viability relative to DMSO control; higher = less cytotoxic
- test settings: RPMI 5 mM glucose + 10% FBS; 48 h; 1.71 µM
test readout: cell viability (%)
Numbers only; they are read as %.

CCCCCCCCCCCC(CC1OC(=O)C1CCCCCC)OC(=O)C(CC(C)C)NC=O (stereo not given) | 97.2
C[C@H](NC(=O)C(=O)Nc1ccccc1C(C)(C)C)C(=O)N[C@@H](CC(=O)O)C(=O)COc1c(F)c(F)cc(F)c1F | 116
CNC(=O)c1cccc(-c2ccc3c(N4CCOC[C@@H]4C)nc(N4CCOC[C@@H]4C)nc3n2)c1 | 68.9
C[C@H]1CN(C[C@@H](C)O1)CC(=O)NC2=CC=C3SC4=C(CC3=C2)C=CC=C4\C5=C\C(=O)\C=C(/O5)N6CCOCC6 | 106

Now look at this one.
Respond only with cell viability recorded for O=C/1\C=C(/OC(=C1)/C2=C3SC4=C(SC3=CC=C2)C=CC=C4)N5CCOCC5
96.7
